target or system: T1, rhesus monkey TROP2-Fc antigen protein (rhesus monkey, UniProt A0A5F8AGB8 27-274)
T1 construct: not shown: Fc
T1 sequence: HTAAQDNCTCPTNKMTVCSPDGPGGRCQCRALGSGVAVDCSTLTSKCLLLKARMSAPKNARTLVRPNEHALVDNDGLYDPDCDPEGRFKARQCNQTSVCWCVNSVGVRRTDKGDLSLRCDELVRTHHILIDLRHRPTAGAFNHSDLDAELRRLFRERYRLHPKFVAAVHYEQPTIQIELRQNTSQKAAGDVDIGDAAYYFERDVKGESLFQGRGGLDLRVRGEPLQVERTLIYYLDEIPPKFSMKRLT
assay summary: ELISA, coated rhesus monkey TROP2-Fc, Kd calculated from absorbance
pKd: −log10 of the molar value.
measured metric: pKd

binder	recorded result
MY1530-2-53 (VHH, Expressed in E. coli WK6 from vector pMECS, purified on a nickel column; also called MY1530-2-53 VHH; anti-TROP2 single domain antibody) VHH: QVQLQESGGGSVQAGGSLRLSCAVSGLTSSTTCMGWFRQAPGKEREGVAVIRSSGETTAADSVKGRFTISRDNAKNTLSLQMTSLKPEDTAMYYCAAAWPYSGCLLPLSSGDFTYWGQGTQVTVSS	7.55
MY1530-4-28 (VHH, Expressed in E. coli WK6 from vector pMECS, purified on a nickel column; also called MY1530-4-28 VHH; anti-TROP2 single domain antibody) VHH: QVQLQESGGGSVQAGGSLRLSCAASGFSVSTTWMHWVRQAPGKGLEWVSRIAINDHTFYAESVKGRFTMSTDNAKNTVYLQMTSLKPEDTAVYYCSPYSDYRIRGQGTQVTVSS	8.86
